- System: MS2 coat protein
- protocolSummary: apparent KD of MS2 coat protein; higher = weaker reporter binding
- measurementParameters: Eterna round: R107; input ligand: theophylline 20 uM
experimentalReadout: apparent KD of MS2 coat protein (nM)

seq: AGCACAUGAGGAUCACCCAUGUGUCGGUACCGAGGACCGGUACGGCCGCCACUCGCAGGACAUGAGGAUCACCCAUGUGCCGCCG [SSTA DOUBLE!!! :-D #8]
measuredTarget: MS2 coat protein
experimentalReadout: apparent KD of MS2 coat protein
resultUnit: nM
obsValue: 36.1
--
seq: GGAUAGGACACGGCCGCCACUAGCUAGGAUACUAGCAACAUUUCCUCACUUGAGGAUCACCCAAGUAGGACCGGGUGUCCUAUCG
measuredTarget: MS2 coat protein
experimentalReadout: apparent KD of MS2 coat protein
resultUnit: nM
obsValue: 250
--
seq: CAUCCACCUGAAGCCUCCCAAUUCCUCGAUACCAGAGGAUUAAGACUCCCUUGGCAGCGAGCUACAUGAGGAUCACCCAUGUGCC [theeternabot_exclusion_MS2_Theo_A_32]
measuredTarget: MS2 coat protein
experimentalReadout: apparent KD of MS2 coat protein
resultUnit: nM
obsValue: 24.1
--
seq: AAUAAUAACAUGGGUGAAGUCGUACCAUAACGAGGACCGGUACGGCCGCCACUCGAACAUGAGGAUCACCCAUGUAGGUACGACA [M'-T'-T-MS2-T'' - Design 9]
measuredTarget: MS2 coat protein
experimentalReadout: apparent KD of MS2 coat protein
resultUnit: nM
obsValue: 110
--
seq: GGGCCCGGGCGCGAGCCCGGGCCCAUUGAUACCAGUGAAGAAGAGCGCCCUUGGCAGCGAAUCCUAACAUGAGGAUCACCCAUGU [5.P]
measuredTarget: MS2 coat protein
experimentalReadout: apparent KD of MS2 coat protein
resultUnit: nM
obsValue: 74.3
--
seq: CAUUAAUUACGAAGGAGCGUCGAAAAUGGGUAAACAUGAGGAUCACCCAUGUAAAGGGAACGACAGGUAGGUCGCGUAAUUAAUG [AstromonsSSArgB#2]
measuredTarget: MS2 coat protein
experimentalReadout: apparent KD of MS2 coat protein
resultUnit: nM
obsValue: 169
--
seq: UUAAGAGGCUAUCCACUUUGAUUUUGUGAUACCAGAAUAAUUUUAUUCCCUUGGCAGCAUGACAUGAGGAUCACCCAUGUGUCUU [SSTheo A #3]
measuredTarget: MS2 coat protein
experimentalReadout: apparent KD of MS2 coat protein
resultUnit: nM
obsValue: 46.5
--
seq: GUAGCGACGACGGCCGCCACUCACAGGUGAGGGUAGACCAACCUUCACAUGAGGAUCACCCAUGUGAGGACCGGGUUGUCGGUAC [#11 Exclusion Tryptophan B]
measuredTarget: MS2 coat protein
experimentalReadout: apparent KD of MS2 coat protein
resultUnit: nM
obsValue: 95.5
--
seq: UGUAUGUGAUCUGAUACCAGAGUGAAUAAACCUGAGGAUCACCCUGGUAGGCGAAAGCCACUCCCUUGGCAGCAGAUCGCAUACU
measuredTarget: MS2 coat protein
experimentalReadout: apparent KD of MS2 coat protein
resultUnit: nM
obsValue: 112
--
seq: AACAUGAGGAUCACCCAUGUCUGAACUGAAGGAGCGCUAAAUAAGGCAGGUAGGUCGCGGAAUUUUAUAUAUAUAUAUAUAUGGG [9.E]
measuredTarget: MS2 coat protein
experimentalReadout: apparent KD of MS2 coat protein
resultUnit: nM
obsValue: 39.9
--
seq: AUACAUGAGGAUCACCCAUGUCCUCGUGAUCGAGGACCGGUACGGCCGCCACUCGGUCCUCGCGAGGAGGAGUCAAAGACUCCAA [Omei Trp A SS A v4]
measuredTarget: MS2 coat protein
experimentalReadout: apparent KD of MS2 coat protein
resultUnit: nM
obsValue: 111
--
seq: AGUUACAUGAGGAUCACCCAUGUCCGGUUGCGAGGACCGGUACGGCCGCCACUCGGGUACAUCCCAGAAAAUACUGAAUGCCUGC [theeternabot_sameState_MS2_Trp_A_15]
measuredTarget: MS2 coat protein
experimentalReadout: apparent KD of MS2 coat protein
resultUnit: nM
obsValue: 66.4

Where these numbers come from: the supplement of paper PMC9170038
